Could you please report measured normalized growth for the items listed next?
experiment: chemical genetic growth profiling, strain panel (AID 1159580);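 further: tested at 20 µM; growth read once vehicle control cultures reached saturation at 30 °C; 1 = growth at the plate median or of vehicle wells; lower values mean less growth of the strain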
experimental context: S. cerevisiae deletion strains, growth OD, locus YER123W, strain YCK3, active compounds read low
Out of some 5,500 compounds screened, about 2,000 (36%) were called active. Roughly 18% stayed inconclusive and do not appear here. This is one part of the list.

compound=CC(C)(C)c1ccc(C(=O)Nc2ccc(C(F)(F)F)cc2)s1 result_value="0.968 (inactive)"
compound=CCCCCCCCCCCC(=O)NOC(=O)c1c(-c2c(Cl)cccc2Cl)noc1C result_value="0.656 (inactive)"

Working through the 4 compounds below one at a time, give normalized growth for each.
1. Cc1ccc(NNC(=O)c2c(C)noc2C)cc1Cl
2. Cc1onc(-c2c(F)cccc2Cl)c1C(=O)ON=C1C2CC3CC(C2)CC1C3
3. CC(C)(C)c1ccc(C(=O)NNc2c(Cl)cccc2Cl)cc1
4. O=[N+]([O-])c1ccc2oc(C(O)c3cccc(Cl)c3)cc2c1 (stereo unspecified)

1. 0.857 (inactive)
2. 0.939 (inactive)
3. 0.904 (inactive)
4. 0.94 (inactive)

* * *

experiment: chemical genetic growth profiling, strain panel (AID 1159580)
experimental context: S. cerevisiae deletion strains, growth OD, locus YBR009C, strain hhf1, active compounds read low
Among all 5,500 compounds or so, about 2,000 (36%) were called active. Roughly 18% stayed inconclusive and do not appear here. Some of the results follow.
Could you please report measured normalized growth for the items listed next?
Numbers only.

Below, 8 compounds whose answers are already recorded.
compound=O=C(O)CN(CC(=O)O)Cc1cc2c(-c3ccccc3C(=O)O)c3cc(CN(CC(=O)O)CC(=O)O)c(=O)cc-3oc2cc1O result_value=0.931
compound="C#CCCCCCCCCCCCC(O)CC(O)COC(C)=O (stereo unspecified)" result_value=0.263
compound=COc1ccc2c(c1)O[C@H]1c3ccc(OC)cc3OC[C@@H]21 result_value=1
compound=OCc1ccccc1O result_value=1.02
compound="C#CCCCCCCCCCCCC(=O)CC(O)COC(C)=O (stereo unspecified)" result_value=0.991
compound=COc1cc([C@@H]2c3cc4c(c(O)c3C[C@H]3COC(=O)[C@@H]32)OCO4)cc(OC)c1OC result_value=0.993
compound=COc1ccc([C@H]2Oc3cc(OC)cc(OC)c3C[C@H]2O)cc1 result_value=1.01
compound=CC(C)(C)CC(C)(C)c1ccc(O)c(Cc2ccc(Cl)cc2Cl)c1 result_value=0.995

Working through the 3 compounds below one at a time, give normalized growth for each.
1. COc1ccc2c(c1OC)C(=O)OC2[C@H]1c2c(cc3c(c2OC)OCO3)CCN1C (stereo partly specified)
2. O=C(C1CCCCC1)N1CC(=O)N2CCc3ccccc3C2C1 (stereo unspecified)
3. Oc1ccc(Cl)cc1Cc1cc(Cl)ccc1O

1. 1.02
2. 1.01
3. 0.0651

* * *

Could you please report measured normalized growth for the items listed next?
experiment: chemical genetic growth profiling, strain panel (AID 1159580)
experimental context: S. cerevisiae deletion strains, growth OD, locus YDL101C, strain DUN1, active compounds read low
Hit rate of the full screen: of about 5,500 compounds, about 2,000 (36%) were called active. About 18% were inconclusive and are not listed. This is one part of the list.

compound=COC(=O)C1=CCCN(C)C1 result_value="0.976 (inactive)"
compound=O=C(O)c1ccccc1-c1c2cc(Br)c(=O)cc-2oc2[c]([Hg])c(O)c(Br)cc12 result_value="0.936 (inactive)"
compound="C=C1C(C)C2C(Cc3ccccc3)NC(=O)C23OC(=O)/C=C/C(=O)CCCC(C)C/C=C/C3C1O (stereo unspecified)" result_value="1.01 (inactive)"
compound=CCCCNc1ccc(C(=O)OCCN(C)C)cc1 result_value="1.01 (inactive)"

Working through the 2 compounds below one at a time, give normalized growth for each.
1. N#Cc1c(F)cccc1Oc1ccc(F)cc1
2. O=c1cc[nH]c(=S)[nH]1

0.98 (inactive)
1.03 (inactive)

* * *

experiment: chemical genetic growth profiling, strain panel (AID 1159580);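 further: tested at 20 µM; growth read once vehicle control cultures reached saturation at 30 °C; 1 = growth at the plate median or of vehicle wells; lower values mean less growth of the strain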
experimental context: S. cerevisiae deletion strains, growth OD, locus YGL173C, strain kem1, active compounds read low
Structures can show the parent of a compound that is named as a salt. Screen size: about 5,500 compounds; about 2,000 (36%) were called active. Another 18% or so got no clear call; they are omitted. Some of the results follow. Where a SMILES comes first, the peptide text is derived from it. The star is where a group is joined. Tfa = O=C(C(F)(F)F)*
result type: normalized growth

Below, 8 compounds whose answers are already recorded.
compound=COc1ccc(-c2coc3cc(OC)cc(OC)c3c2=O)cc1 result_value="0.98 (inactive)"
compound=COc1cc(-c2coc3cc(OC)c(OC)c(OC)c3c2=O)cc(OC)c1OC result_value="1 (inactive)"
compound=Cc1cc(NC(=O)C2=C(O)c3ccccc3S(=O)(=O)N2C)no1 result_value="0.984 (inactive)"
compound="CC1=CC2C(CC1=O)C(C)=CCC2C(C)C (stereo not given)" result_value="1.01 (inactive)"
compound="C[C@@H]1C(=O)OC2[C@H](O)C34[C@@H]5OC(=O)[C@@]3(O[C@@H]3OC(=O)[C@H](O)[C@@]34[C@H](C(C)(C)C)[C@H]5O)[C@]21O (stereo not given in full)" result_value="0.953 (inactive)"
compound=COc1ccc(CCN2CCC(Nc3nc4ccccc4n3Cc3ccc(F)cc3)CC2)cc1 result_value="0.982 (inactive)"
compound="CO[C@@]1(NC(=O)CSCC#N)C(=O)N2C(C(=O)O)=C(CSc3nnnn3C)CSC21 (stereo not given in full)" result_value="0.97 (inactive)"
compound=CC(C)NC[C@H](O)COc1cccc2ccccc12 result_value="0.993 (inactive)"

Working through the 5 compounds below one at a time, give normalized growth for each.
1. CCCCOC(=O)c1ccc(N)cc1
2. CC[C@H](C)C(=O)O[C@H]1CCC=C2C=C[C@H](C)C(CCC3C[C@@H](O)CC(=O)O3)[C@H]21 (stereo not given in full)
3. Cc1coc2c1C(=O)C(=O)c1c-2ccc2c1CCCC2(C)C
4. Oc1ccc(Cl)cc1
5. O=c1cc[nH]c(=S)[nH]1

0.876 (active)
1.01 (inactive)
0.97 (inactive)
1 (inactive)
1.01 (inactive)

Working through the 3 compounds below one at a time, give normalized growth for each.
1. CC(C)[C@@H]1CC[C@@H](C)C[C@H]1O
2. CC(=O)OC1CCC2(C)C(=CC=C3C2CCC2(C)C3CCC2C(C)/C=C/C(C)C(C)C)C1(C)C (stereo not given)
3. CC(C)C(NC(=O)C(Cc1ccc(O)cc1)NC(=O)C(NC(=O)C(F)(F)F)C(C)C)C(=O)O (stereo not drawn) (Tfa-Val-Tyr-Val-OH; configuration not given here)

0.999 (inactive)
1.03 (inactive)
0.991 (inactive)

* * *

Could you please report measured normalized growth for the items listed next?
experiment: chemical genetic growth profiling, strain panel (AID 1159580);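 further: tested at 20 µM; growth read once vehicle control cultures reached saturation at 30 °C; 1 = growth at the plate median or of vehicle wells; lower values mean less growth of the strain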
experimental context: S. cerevisiae deletion strains, growth OD, locus YHR142W, strain chs7, active compounds read low
The whole screen tested about 5,500 compounds, of which about 2,000 (36%) were called active. Another 18% or so got no clear call; they are omitted. Some of the results follow.
Numbers only.

Below, 5 molecules whose answers are already recorded.
molecule="O=C(C1CCCCC1)N1CC(=O)N2CCc3ccccc3C2C1 (stereo not given)" result_value=1
molecule=O=C1OC(c2ccc(O)cc2)(c2ccc(O)cc2)c2ccccc21 result_value=0.977
molecule="C=C1CCC2C(CC2(C)C)C(=C)CC/C1=N\\O (stereo not given)" result_value=1
molecule="CC(C)C(C)/C=C/C(C)C1CCC2C3=CC=C4CC(O)CCC4(C)C3CCC21C (stereo not given)" result_value=0.884
molecule=CC[C@H](C)C(=O)O[C@H]1C[C@@H](C)C=C2C=C[C@H](C)[C@H](CC[C@@H]3C[C@@H](O)CC(=O)O3)[C@H]21 result_value=1

Working through the 5 molecules below one at a time, give normalized growth for each.
1. CC1=CC2C(CC1=O)C(C)=CCC2C(C)C (stereo not given)
2. CC[C@H](C)C(=O)O[C@H]1CCC=C2C=C[C@H](C)C(CCC3C[C@@H](O)CC(=O)O3)[C@H]21 (stereo not given in full)
3. C=C1CCC(C2CC(=O)OC2=O)C(=O)CCC2C1CC2(C)C (stereo not given)
4. C=C1C(=O)OC2CC1C(OC(C)=O)C/C(C)=C/CC/C(C)=C/CC[C@]2(C)O (stereo not given in full)
5. C=C1C(=O)O[C@@H]2C3O[C@]3(C)CC/C=C(\C)CC[C@@H]12 (stereo not given in full)

[0.981, 1.01, 1.04, 1.01, 0.962]

* * *

experiment: chemical genetic growth profiling, strain panel (AID 1159580);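 further: tested at 20 µM; growth read once vehicle control cultures reached saturation at 30 °C; 1 = growth at the plate median or of vehicle wells; lower values mean less growth of the strain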
experimental context: S. cerevisiae deletion strains, growth OD, locus YLR133W, strain CKI1, active compounds read low
Screen size: about 5,500 compounds; about 2,000 (36%) were called active. About 18% were inconclusive and are not listed. Some of the results follow.
result type: normalized growth
Numbers only.

Working through the 5 compounds below one at a time, give normalized growth for each.
1. Cc1ccc(NS(=O)(=O)c2ccc(Cl)cc2)c(N=Cc2cc(Cl)cc(Cl)c2O)c1
2. OC(=Cc1nc2ccccc2nc1C=C(O)c1ccc(Cl)cc1)c1ccc(Cl)cc1
3. O=[N+]([O-])c1ccc2oc(C(O)c3ccc(-c4ccccc4)cc3)cc2c1 (stereo unspecified)
4. O=C(/C=C/Sc1nc2ccccc2s1)c1ccc(Cl)cc1
5. Cc1onc(-c2c(F)cccc2Cl)c1C(=O)ON=C1C2CC3CC(C2)CC1C3

1. 0.198
2. 0.884
3. 0.877
4. 0.905
5. 0.951

Working through the 8 compounds below one at a time, give normalized growth for each.
1. O=c1c2ccccc2[nH]c(=S)n1-c1cccc(C(F)(F)F)c1
2. CC1(C)OC(=O)C(=Cc2cccn2-c2ccc(OC(F)(F)F)cc2)C(=O)O1
3. Cc1nc(-c2ccc(S(=O)(=O)Nc3ccc(Br)cc3Cl)s2)cs1
4. Cc1c(C(=S)Nc2ccccc2)sc2ccccc12
5. CC(=O)Nc1ccc(S(=O)(=O)Nc2ccccc2Oc2ccc(Cl)cc2Cl)cc1
6. CCc1ccn2cc(Nc3ccccc3Cl)nc2c1
7. O=[N+]([O-])c1ccc2oc(C(O)c3cccc(Cl)c3)cc2c1 (stereo unspecified)
8. CC(C)(C)c1ccc(C(=O)NNc2c(Cl)cccc2Cl)cc1

[0.895, 0.923, 0.888, 0.888, 0.98, 0.928, 0.935, 0.89]

Working through the 3 compounds below one at a time, give normalized growth for each.
1. O=C(Nc1ccc(OC(F)(F)F)cc1)OC1CN(C(c2ccccc2)c2ccccc2)C1
2. CC(C)(CCC(C)(C)N1C(=O)c2cccc3cccc(c23)C1=O)N1C(=O)c2cccc3cccc(c23)C1=O
3. N#CC(C#N)=Cc1ccc(-c2ccccc2C(F)(F)F)o1

0.972
0.0889
0.891
